Assay: Metabolic stability in liver microsomes, MLM
Details: 1 μM, NADPH
Where a name gives a salt, the structure may show the parent alone.
Listed here: items and their measured Metabolic stability MLM % remaining in 30 min.

The examples below pair each entry with its known result.
# Compound, Data value
records = [
    ("Cn1cc(-c2ccc(C3CC3NCC3CN(C(=O)/C=C/c4ccc(C(=O)NO)cc4)C3)cc2)cn1 (centres unmarked) [Example 119, TFA Salt]", "49%"),
    ("O=C(NO)c1ccc(CCCN2CCC(CNC3CC3c3ccc(C(=O)N4CCOCC4)cc3)CC2)cc1 (centres unmarked) [Example 53, TFA Salt]", "82%"),
    ("Cc1noc(C)c1-c1ccc(C2CC2NCC2CCN(Cc3ccc(C(=O)Nc4ccccc4N)cc3)CC2)cc1 (centres unmarked) [Example 143, TFA Salt]", "50%"),
    ("COc1ccc(C2CC2NCC2CCN(c3ncc(C(=O)NO)cn3)CC2)cc1 (centres unmarked) [Example 18, TFA Salt]", "28%"),
    ("O=C(NO)c1ccc(CCCN2CCn3cc(CNC4CC4c4ccc(F)cc4)nc3C2)cc1 (centres unmarked) [Example 72, TFA Salt]", "< 5%"),
]

Please find the next compound below.
Input: Using the record for Cn1cc(-c2ccc(C3CC3NCC3CCN(CCCc4ccc(C(=O)NO)cc4)CC3)cc2)cn1 (centres unmarked) [Example 62, TFA Salt] , report its Metabolic stability MLM % remaining in 30 min.
Output: 66%

* * *

Test: Metabolic stability in liver microsomes, MLM
Conditions: 1 μM, NADPH
Structures can show the parent of a compound that is named as a salt.
Rule: Metabolic stability MLM % remaining in 30 min below 50% gives True, anything at or above gives False.

Use these answered entries as a reference point.
# Compound, Label value
data = [
    ("O=C(NO)c1ccc(CCCN2CCC(CNC3CC3c3ccc(-c4ccc(F)cc4)cc3)CC2)cc1 (stereo not shown) [Example 57, TFA Salt]", "False"),
    ("O=C(NO)c1ccc(CN2CCC(CNC3CC3c3ccc(-c4cncnc4)cc3)CC2)cc1 (stereo not shown) [Example 38, TFA Salt]", "False"),
    ("Nc1ccccc1NC(=O)c1ccc(CCC(=O)N2CCC(NC3CC3c3ccccc3)CC2)cc1 (stereo not shown) [Example 133, TFA Salt]", "True"),
]

Input: Lab note: Metabolic stability MLM % remaining in 30 min threshold 50%. Does this compound come in strictly under it? O=C(NO)c1cnc(N2CCC(NC3CC3c3ccc(F)cc3)CC2)nc1 (stereo not shown) [Example 10, TFA salt]
Output: False

Input: Lab note: Metabolic stability MLM % remaining in 30 min threshold 50%. Does this compound come in strictly under it? O=C(NO)c1ccc(CCCN2CC(CNC3CC3c3ccc(F)cc3)C2)cc1 (stereo not shown) [Example 48, TFA Salt]
Output: True

Input: Lab note: Metabolic stability MLM % remaining in 30 min threshold 50%. Does this compound come in strictly under it? O=C(NO)c1ccc(/C=C/C(=O)N2CCC(CNC3CC3c3ccccc3)CC2)cc1 (stereo not shown) [Example 114, TFA Salt]
Output: False

* * *

Experiment: Metabolic stability in liver microsomes, HLM
Conditions: 1 μM, NADPH
Structures can show the parent of a compound that is named as a salt.
Listed here: items and their measured Metabolic stability HLM % remaining in 30 min.

The examples below pair each entry with its known result.
# Compound, Data value
rows = [
    ("O=C(NO)c1ccc(CCCN2CCc3cc(CNC4CC4c4ccc(F)cc4)ccc3C2)cc1 (centres unmarked) [Example 78, TFA Salt]", "72%"),
    ("O=C(CCCCCCNC(=O)c1ccc(CNC2CC2c2ccc(F)cc2)cc1)NO (centres unmarked) [Example 32, TFA Salt]", "41%"),
]

Input: Using the record for O=C(NO)c1ccc(/C=C/C(=O)N2CC(CNC3CC3c3ccc(F)cc3)C2)cc1 (centres unmarked) [Example 118, TFA Salt] , report its Metabolic stability HLM % remaining in 30 min.
Output: 77%

Input: Using the record for Nc1ccccc1NC(=O)c1cnc(NCCN2CCC(CNC3CC3c3ccc(F)cc3)CC2)nc1 (centres unmarked) [Example 150, TFA Salt] , report its Metabolic stability HLM % remaining in 30 min.
Output: >95/>95%

Input: Using the record for CN1C(=O)C(C)(C)c2cc(C3CC3NCC3CCN(CCCc4ccc(C(=O)NO)cc4)CC3)ccc21 (centres unmarked) [Example 81, TFA Salt] , report its Metabolic stability HLM % remaining in 30 min.
Output: >95/>95%

Input: Using the record for COc1ccc(C2CC2NCc2cn3c(n2)CN(CCCc2ccc(C(=O)NO)cc2)CC3)cc1 (centres unmarked) [Example 71, TFA Salt] , report its Metabolic stability HLM % remaining in 30 min.
Output: 73%
